Would you mind telling me the reported IC50 of each entry?
- SYSTEM: PA/PB1 (Influenza A virus (A/Puerto Rico/8/1934(H1N1)), UniProt P03431+P03433)
- EXPERIMENTAL_PROTOCOL: Inhibition of Influenza A virus PR/8/34 6His-tagged PA (239 to 716 residues) interaction with GST-tagged PB1 (1 to 25 residues) expressed in Escherichia coli compound treated in PBS buffer measured after overnight incubation by ELISA
Give bare numbers, in µM.

Cc1cccc(NC(=O)CSc2nc(-c3ccccc3)cc(-c3ccccc3)c2C#N)c1
175
Cc1cccc(NC(=O)/C=C/c2nc(-c3ccccc3)cc(-c3ccccc3)c2C#N)c1
190

For the 6 compounds below, give their IC50 values.
1. Cc1cccc(NC(=O)CSc2cc(-c3ccccc3)cc(-c3ccccc3)n2)c1
2. N#Cc1c(-c2ccccc2)cc(-c2ccccc2)nc1SCC(=O)N1CCOCC1
3. CSCC[C@H](N)C(=O)N[C@@H](CC(=O)O)C(=O)N[C@H](C(=O)N[C@@H](CC(N)=O)C(=O)N1CCC[C@H]1C(=O)N[C@H](C(=O)N[C@@H](CC(C)C)C(=O)N[C@@H](CC(C)C)C(=O)N[C@@H](Cc1ccccc1)C(=O)N[C@@H](CC(C)C)C(=O)N[C@@H](CCCCN)C(=O)N[C@H](C(=O)N1CCC[C@H]1C(=O)N[C@@H](C)C(=O)N[C@@H](CCC(N)=O)C(=O)O)C(C)C)[C@@H](C)O)C(C)C
4. Cc1cccc(NC(=O)CCCSc2nc(-c3ccccc3)cc(-c3ccccc3)c2C#N)c1
5. N#Cc1cnc(-c2ccccc2)cc1-c1ccccc1
6. CSc1nc(-c2ccccc2)cc(-c2ccccc2)c1C#N

[52.6, 177, 35.9, 140, 116, 195]

For the 2 compounds below, give their IC50 values.
1. Cc1cccc(NC(=O)CSc2nc(-c3ccccc3)cc(-c3ccccc3)n2)c1
2. Cc1cccc(NC(=O)CCSc2nc(-c3ccccc3)cc(-c3ccccc3)c2C#N)c1

[165, 122]

---

- Tested on: Influenza A virus
- EXPERIMENTAL_PROTOCOL: Antiviral activity against Influenza A virus PR/8/34 infected in MDCK cells assessed as inhibition of plaque formation treated for 1 hr measured after 2 days by toluidine blue staining-based assay
- Format: functional, organism-based
- MEASUREMENT_SETUP: A/Puerto Rico/8/1934(H1N1)
Would you mind telling me the reported EC50 of each entry?
Give bare numbers, in µM.

A selection of reference data follows.
Cc1cccc(NC(=O)COc2nc(-c3ccccc3)cc(-c3ccccc3)c2C#N)c1
93.9
Cc1cccc(NC(=O)CNc2nc(-c3ccccc3)cc(-c3ccccc3)c2C#N)c1
28.6
NC(=O)c1ncn([C@@H]2O[C@H](CO)[C@@H](O)[C@H]2O)n1 [RIBAVIRIN]
12.8
Cc1cccc(NC(=O)/C=C/c2nc(-c3ccccc3)cc(-c3ccccc3)c2C#N)c1
70.7
Cc1cccc(NC(=O)CCCSc2nc(-c3ccccc3)cc(-c3ccccc3)c2C#N)c1
8.2

For the 2 compounds below, give their EC50 values.
1. N#Cc1cnc(-c2ccccc2)cc1-c1ccccc1
2. N#Cc1c(-c2ccccc2)cc(-c2ccccc2)nc1SCC(=O)N1CCOCC1

45.1
100

For the 3 compounds below, give their EC50 values.
1. Cc1cccc(NC(=O)CSc2nc(-c3ccc(C(F)(F)F)cc3)cc(-c3ccc(C(F)(F)F)cc3)n2)c1
2. CCOC(=O)C1=C[C@@H](OC(CC)CC)[C@H](NC(C)=O)[C@@H](N)C1 [OSELTAMIVIR]
3. CSCC[C@H](N)C(=O)N[C@@H](CC(=O)O)C(=O)N[C@H](C(=O)N[C@@H](CC(N)=O)C(=O)N1CCC[C@H]1C(=O)N[C@H](C(=O)N[C@@H](CC(C)C)C(=O)N[C@@H](CC(C)C)C(=O)N[C@@H](Cc1ccccc1)C(=O)N[C@@H](CC(C)C)C(=O)N[C@@H](CCCCN)C(=O)N[C@H](C(=O)N1CCC[C@H]1C(=O)N[C@@H](C)C(=O)N[C@@H](CCC(N)=O)C(=O)O)C(C)C)[C@@H](C)O)C(C)C

[26.5, 0.015, 49.7]

For the 3 compounds below, give their EC50 values.
1. Cc1cccc(NC(=O)CSc2cc(-c3ccccc3)cc(-c3ccccc3)n2)c1
2. Cc1cccc(NC(=O)CSc2nc(-c3ccccc3)cc(-c3ccccc3)c2C#N)c1
3. Cc1cccc(NC(=O)CSc2nc(-c3ccccc3)cc(-c3ccccc3)n2)c1

7.3
9.2
3.5

---

- EXPERIMENTAL_PROTOCOL: Selectivity index, ratio of CC50 for MDCK cells to EC50 for Influenza A virus PR/8/34 infected in MDCK cells
- Assay type: toxicity, cell-based
- MEASUREMENT_SETUP: dog, read-out: Ratio CC50/EC50
QUANTITY: selectivity ratio

Cc1cccc(NC(=O)CSc2nc(-c3ccccc3)cc(-c3ccccc3)c2C#N)c1
> 27.2

For the 4 compounds below, give their selectivity ratio values.
1. Cc1cccc(NC(=O)CSc2nc(-c3ccccc3)cc(-c3ccccc3)n2)c1
2. Cc1cccc(NC(=O)CSc2nc(-c3ccc(C(F)(F)F)cc3)cc(-c3ccc(C(F)(F)F)cc3)n2)c1
3. NC(=O)c1ncn([C@@H]2O[C@H](CO)[C@@H](O)[C@H]2O)n1
4. N#Cc1cnc(-c2ccccc2)cc1-c1ccccc1

[2.9, "> 9.4", "> 19.5", 2.3]

For the 4 compounds below, give their selectivity ratio values.
1. Cc1cccc(NC(=O)CSc2cc(-c3ccccc3)cc(-c3ccccc3)n2)c1
2. N#Cc1c(-c2ccccc2)cc(-c2ccccc2)nc1SCC(=O)N1CCOCC1
3. Cc1cccc(NC(=O)COc2nc(-c3ccccc3)cc(-c3ccccc3)c2C#N)c1
4. Cc1cccc(NC(=O)CNc2nc(-c3ccccc3)cc(-c3ccccc3)c2C#N)c1

1: 20.5; 2: > 2.5; 3: > 2.7; 4: > 8.7

---

- System: Influenza A virus
- EXPERIMENTAL_PROTOCOL: Antiviral activity against Influenza A virus PR/8/34 infected in MDCK cells assessed as inhibition of plaque formation treated for 1 hr measured after 2 days by toluidine blue staining-based assay
- Assay type: functional, organism-based
- MEASUREMENT_SETUP: A/Puerto Rico/8/1934(H1N1)
QUANTITY: EC50

A selection of reference data follows.
Cc1cccc(NC(=O)CSc2nccc(-c3ccccc3)c2C#N)c1
> 10 µM
Cc1cccc(NC(=O)CCSc2nc(-c3ccccc3)cc(-c3ccccc3)c2C#N)c1
> 10 µM

For the 3 molecules below, give their EC50 values.
1. Cc1cccc(NC(=O)CCc2nc(-c3ccccc3)cc(-c3ccccc3)c2C#N)c1
2. Cc1cccc(NC(=O)CSc2nc(-c3ccccc3)ccc2C#N)c1
3. CSc1nc(-c2ccccc2)cc(-c2ccccc2)c1C#N

["> 100 µM", "> 10 µM", "> 50 µM"]
